- tested-system: Egl nine homolog 1 (Homo sapiens, UniProt Q9GZT9)
- assay-notes: Inhibition of GST-tagged PHD2 assessed as inhibition of hydroxylation of fluorescein-labeled HIF1alpha CODD peptide after 1 hr by fluorescent polarization assay in presence of 2-oxoglutarate
- Sequence (Q9GZT9 whole entry): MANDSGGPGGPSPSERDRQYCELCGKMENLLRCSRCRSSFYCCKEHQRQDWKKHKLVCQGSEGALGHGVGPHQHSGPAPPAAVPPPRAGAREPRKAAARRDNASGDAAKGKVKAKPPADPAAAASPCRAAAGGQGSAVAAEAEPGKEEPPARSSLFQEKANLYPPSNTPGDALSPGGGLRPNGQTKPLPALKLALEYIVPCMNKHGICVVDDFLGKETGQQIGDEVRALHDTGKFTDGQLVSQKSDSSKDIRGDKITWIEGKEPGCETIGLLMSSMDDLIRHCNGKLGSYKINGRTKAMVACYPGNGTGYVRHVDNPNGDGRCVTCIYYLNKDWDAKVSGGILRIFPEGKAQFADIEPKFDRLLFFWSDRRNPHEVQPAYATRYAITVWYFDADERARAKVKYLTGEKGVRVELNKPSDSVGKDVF
value-type: IC50 (µM)
Give bare numbers, in µM.

| chemical-smiles | test-result |
| --- | --- |
| O=C(O)[C@@H]1CC(=S)CN1 | 69.7 |

Pending compound:
*Q* For the compound `O=C(O)[C@@H]1C=CCN1` , what IC50 is on record?
*A* 8.5

---

- tested-system: Egl nine homolog 1 (Homo sapiens)
- assay-notes: Inhibition of GST-tagged PHD2 assessed as inhibition of hydroxylation of biotinylated HIF1alpha CODD peptide at 100 uM after 20 mins by MALDI-TOF technique in presence of 2-oxoglutarate
- Sequence (Q9GZT9 2-426 limits assumed): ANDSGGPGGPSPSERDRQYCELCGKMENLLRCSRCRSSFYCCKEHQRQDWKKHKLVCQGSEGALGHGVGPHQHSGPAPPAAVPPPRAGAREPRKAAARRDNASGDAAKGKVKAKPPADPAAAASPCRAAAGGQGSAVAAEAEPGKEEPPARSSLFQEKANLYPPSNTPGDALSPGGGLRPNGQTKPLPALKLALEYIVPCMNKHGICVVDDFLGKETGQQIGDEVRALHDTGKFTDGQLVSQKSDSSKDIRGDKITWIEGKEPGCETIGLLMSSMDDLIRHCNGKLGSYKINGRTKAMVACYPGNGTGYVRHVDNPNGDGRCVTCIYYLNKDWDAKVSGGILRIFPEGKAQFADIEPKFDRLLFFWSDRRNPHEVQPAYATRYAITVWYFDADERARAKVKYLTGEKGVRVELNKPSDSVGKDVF
The source made the active and inactive calls. No cut-off for these calls is given here.
Hi there, use one of these labels in your reply, thanks! active, inactive

| chemical-smiles | tested-system | label-value |
| --- | --- | --- |
| O=C(O)[C@@H]1CC(=S)CN1 | Egl nine homolog 1 (Homo sapiens) | active |
| O=C(O)[C@@H]1C[C@@H](O)CN1 | Egl nine homolog 1 (Homo sapiens) | inactive |

*Q* Could you please tell me the result logged for `O=C(O)[C@@H]1C[C@@H](F)CN1` in this assay?
*A* inactive

*Q* Could you please tell me the result logged for `O=C(O)[C@@H]1C=CCN1` in this assay?
*A* active
